We begin with a simple list: items and their reported IC50.
assay: Cytotoxicity against human KB cells assessed as inhibition of cell proliferation after 72 hrs by SRB assay; format: functional, cell-based

Solved cases below.
COc1ccc(C2=NO[C@@]3(C2)C(=O)O[C@@H]2O[C@@]4(C)CC[C@H]5[C@H](C)CC[C@@H]3[C@@]25OO4)cc1OC ... > 20 µM
COc1ccc2c(c1)CCN1O[C@@]3(C[C@H]21)[C@@H](OCCN1CCN(C)CC1)O[C@@H]1O[C@@]2(C)CC[C@H]4[C@H](C)CC[C@@H]3[C@@]14OO2 ... 17.9 µM
CO[C@H]1O[C@@H]2O[C@@]3(C)CC[C@H]4[C@H](C)CC[C@@H]([C@]15CC(c1ccc(Cl)cc1)=NO5)[C@@]24OO3 ... > 20 µM
COC(=O)c1ccc(C2=NO[C@@]3(C2)C(=O)O[C@@H]2O[C@@]4(C)CC[C@H]5[C@H](C)CC[C@@H]3[C@@]25OO4)cc1 ... > 20 µM
COc1ccc2c(c1)CCN1O[C@@]3(C[C@H]21)[C@@H](OC)O[C@@H]1O[C@@]2(C)CC[C@H]4[C@H](C)CC[C@@H]3[C@@]14OO2 ... > 20 µM
C[C@@H]1CC[C@@H]2[C@]34OO[C@](C)(CC[C@@H]13)O[C@H]4OC(=O)[C@@]21C[C@H]2c3ccccc3CCN2O1 ... > 20 µM

Task item: Returns the measured IC50 for the input compound. Input: C[C@@H]1CC[C@@H]2[C@]34OO[C@](C)(CC[C@@H]13)O[C@H]4OC(=O)[C@@]21CC(c2ccc(Cl)cc2)=NO1
Reply: 13.9 µM

Task item: Returns the measured IC50 for the input compound. Input: CC[C@]1(O)C[C@H]2CN(CCc3c([nH]c4ccccc34)[C@@](C(=O)OC)(c3cc4c(cc3OC)N(C=O)[C@H]3[C@@](O)(C(=O)OC)[C@H](OC(C)=O)[C@]5(CC)C=CCN6CC[C@]43[C@@H]65)C2)C1
Reply: 0.00087 µM

Task item: Returns the measured IC50 for the input compound. Input: COc1cc2c(cc1OC)[C@H]1C[C@]3(ON1CC2)C(=O)O[C@@H]1O[C@@]2(C)CC[C@H]4[C@H](C)CC[C@@H]3[C@@]14OO2
Reply: 2.53 µM

Task item: Returns the measured IC50 for the input compound. Input: COc1ccc2c(c1)CCN1O[C@@]3(C[C@@H]21)C(=O)O[C@@H]1O[C@@]2(C)CC[C@H]4[C@H](C)CC[C@@H]3[C@@]14OO2
Reply: > 20 µM

Task item: Returns the measured IC50 for the input compound. Input: COc1ccc2c(c1)CCN1O[C@@]3(C[C@H]21)[C@H](OC)O[C@@H]1O[C@@]2(C)CC[C@H]4[C@H](C)CC[C@@H]3[C@@]14OO2
Reply: > 20 µM

Task item: Returns the measured IC50 for the input compound. Input: COc1ccc2c(c1)CCN1O[C@@]3(C[C@H]21)[C@@H](OCCN1CCOCC1)O[C@@H]1O[C@@]2(C)CC[C@H]4[C@H](C)CC[C@@H]3[C@@]14OO2
Reply: > 20 µM

Task item: Returns the measured IC50 for the input compound. Input: COc1cc(C2=NO[C@@]3(C2)C(=O)O[C@@H]2O[C@@]4(C)CC[C@H]5[C@H](C)CC[C@@H]3[C@@]25OO4)cc(OC)c1OC
Reply: > 20 µM

Task item: Returns the measured IC50 for the input compound. Input: C[C@@H]1CC[C@H]2[C@@H](C)C(=O)O[C@@H]3O[C@@]4(C)CC[C@@H]1[C@]32OO4
Reply: > 20 µM

Task item: Returns the measured IC50 for the input compound. Input: CCO[C@@H]1O[C@@H]2O[C@@]3(C)CC[C@H]4[C@H](C)CC[C@@H]([C@]15C[C@@H]1c6ccc(OC)cc6CCN1O5)[C@@]24OO3
Reply: > 20 µM

Task item: Returns the measured IC50 for the input compound. Input: CCO[C@H]1O[C@@H]2O[C@@]3(C)CC[C@H]4[C@H](C)CC[C@@H]([C@]15C[C@@H]1c6ccc(OC)cc6CCN1O5)[C@@]24OO3
Reply: > 20 µM

Task item: Returns the measured IC50 for the input compound. Input: CO[C@H]1O[C@@H]2O[C@@]3(C)CC[C@H]4[C@H](C)CC[C@@H]([C@]15CC(c1c(Cl)cccc1Cl)=NO5)[C@@]24OO3
Reply: 5.29 µM

Task item: Returns the measured IC50 for the input compound. Input: C[C@@H]1CC[C@@H]2[C@]34OO[C@](C)(CC[C@@H]13)O[C@H]4OC(=O)[C@@]21C[C@@H]2c3ccccc3CCN2O1
Reply: 2.91 µM

Task item: Returns the measured IC50 for the input compound. Input: COc1cc2c(cc1OC)[C@@H]1C[C@]3(ON1CC2)C(=O)O[C@@H]1O[C@@]2(C)CC[C@H]4[C@H](C)CC[C@@H]3[C@@]14OO2
Reply: > 20 µM

Task item: Returns the measured IC50 for the input compound. Input: COc1ccc2c(c1)CCN1O[C@@]3(C[C@H]21)C(=O)O[C@@H]1O[C@@]2(C)CC[C@H]4[C@H](C)CC[C@@H]3[C@@]14O2
Reply: 15.4 µM

Task item: Returns the measured IC50 for the input compound. Input: COc1ccc2c(c1)CCN1O[C@@]3(C[C@@H]21)C(=O)O[C@@H]1O[C@@]2(C)CC[C@H]4[C@H](C)CC[C@@H]3[C@@]14O2
Reply: > 20 µM

Task item: Returns the measured IC50 for the input compound. Input: CO[C@@H]1O[C@@H]2O[C@@]3(C)CC[C@H]4[C@H](C)CC[C@@H]([C@]15CC(c1ccc(Cl)cc1)=NO5)[C@@]24OO3
Reply: > 20 µM

---

We begin with a simple list: items and their reported IC50.
test: Cytotoxicity against human KB cells assessed as inhibition of cell proliferation after 72 hrs by SRB assay; type: functional, cell-based

C[C@@H]1CC[C@@H]2[C@]34OO[C@](C)(CC[C@@H]13)O[C@H]4OC(=O)[C@@]21CC(c2c(Cl)cccc2Cl)=NO1 ... > 20 µM
CO[C@@H]1O[C@@H]2O[C@@]3(C)CC[C@H]4[C@H](C)CC[C@@H]([C@]15CC(c1c(Cl)cccc1Cl)=NO5)[C@@]24OO3 ... > 20 µM

Proceed to the following item.
Task item: Returns the measured IC50 for the input compound. Input: C[C@@H]1CC[C@@H]2[C@]34OO[C@](C)(CC[C@@H]13)O[C@H]4OC(=O)[C@@]21C[C@@H]2COCCN2O1
Reply: > 20 µM

---

system: L1210; assay: Cytotoxicity against mouse L1210 cells by MTT assay; format: functional, cell-based
recordedEndpoint: IC50
Entry format: amount then unit.

Task item: Returns the measured IC50 for the input molecule. Input: C[C@H]1[C@@H](O[C@H](C#N)c2ccc(Br)cc2)O[C@@H]2O[C@@]3(C)CC[C@H]4[C@H](C)CC[C@@H]1[C@@]24OO3
Reply: 0.01 µM

---

tested on: A549; test: Cytotoxicity against human A549 cells assessed as inhibition of cell proliferation after 72 hrs by SRB assay; assay type: functional, cell-based; conditions: A549, 72 h
pIC50: −log10 of the molar value.
We begin with a simple list: items and their reported pIC50.

COc1ccc2c(c1)CCN1O[C@@]3(C[C@H]21)[C@@H](OC)O[C@@H]1O[C@@]2(C)CC[C@H]4[C@H](C)CC[C@@H]3[C@@]14OO2 ... < 4.70
C[C@@H]1CC[C@@H]2[C@]34OO[C@](C)(CC[C@@H]13)O[C@H]4OC(=O)[C@@]21CC(c2ccc(Cl)cc2)=NO1 ... < 4.70
C[C@@H]1CC[C@H]2[C@@H](C)C(=O)O[C@@H]3O[C@@]4(C)CC[C@@H]1[C@]32OO4 ... < 4.70
C[C@@H]1CC[C@@H]2[C@]34OO[C@](C)(CC[C@@H]13)O[C@H]4OC(=O)[C@@]21C[C@@H]2c3ccccc3CCN2O1 ... 5.00
CCO[C@@H]1O[C@@H]2O[C@@]3(C)CC[C@H]4[C@H](C)CC[C@@H]([C@]15C[C@@H]1c6ccc(OC)cc6CCN1O5)[C@@]24OO3 ... < 4.70
COc1ccc2c(c1)CCN1O[C@@]3(C[C@H]21)[C@@H](OCCN1CCOCC1)O[C@@H]1O[C@@]2(C)CC[C@H]4[C@H](C)CC[C@@H]3[C@@]14OO2 ... < 4.70
C[C@@H]1CC[C@@H]2[C@]34OO[C@](C)(CC[C@@H]13)O[C@H]4OC(=O)[C@@]21CC(c2c(Cl)cccc2Cl)=NO1 ... < 4.70
COc1ccc2c(c1)CCN1O[C@@]3(C[C@H]21)[C@H](OC)O[C@@H]1O[C@@]2(C)CC[C@H]4[C@H](C)CC[C@@H]3[C@@]14OO2 ... < 4.70
COc1ccc2c(c1)CCN1O[C@@]3(C[C@H]21)[C@@H](OCCN1CCN(C)CC1)O[C@@H]1O[C@@]2(C)CC[C@H]4[C@H](C)CC[C@@H]3[C@@]14OO2 ... < 4.70
COc1cc2c(cc1OC)[C@@H]1C[C@]3(ON1CC2)C(=O)O[C@@H]1O[C@@]2(C)CC[C@H]4[C@H](C)CC[C@@H]3[C@@]14OO2 ... < 4.70

Proceed to the following item.
Task item: Quick check: pIC50 on A549, item CC[C@]1(O)C[C@H]2CN(CCc3c([nH]c4ccccc34)[C@@](C(=O)OC)(c3cc4c(cc3OC)N(C=O)[C@H]3[C@@](O)(C(=O)OC)[C@H](OC(C)=O)[C@]5(CC)C=CCN6CC[C@]43[C@@H]65)C2)C1 ?
Reply: 7.43
